Target: SARS-CoV-2 spike protein receptor binding domain (RBD2) (SARS-CoV-2, UniProt P0DTC2 319-537)
Assay: SPR sandwich binning, ligand B04
endpointName: normalized analyte binding to RBD2 held by the immobilized ligand
One number for each entry.

Okay, here is my list. What is normalized analyte binding to RBD2 held by the immobilized ligand for each of these?
1. H05 IgG1 (antibody, V domains shown, also called H5; HO5) VH: QVQLVQSGAEVKKPGSSVKVSCKASGGTFSSYAISWVRQAPGQGLEWMGGIIPIFGTANYAQKFQGRVTITADESTSTAYMELSSLRSEDTAVYYCARSIFGVVIISHADGYYYGMDVWGQGTTVTVSS VL: SYVLTQPPSVSVAPGQTARITCGANNIGRISVHWYQQKPGQAPVLVVYDDSDRPSGIPERFSGSNFGNTATLTISRVEAGDEADYYCQVWDSYSDHVIFGGGTKLTVL
2. B04 IgG1 (antibody, V domains shown) VH: QVQLVESGAEVKKPGASVKVSCKASGYTFTRYYMHWVRQAPGQGLEWMGIINPSGGTTSYAQKFQGRVTMTRDTSTSTVYMELSSLRSEDTAVYYCARSFGELTSFDYWGQGTLVTVSS VL: SYVLTQPPSVSVAPGKTARITCGGNNIGIRSVHWYQQKPGQAPVLVIYYDSDRPSGIPERFSGSKSGNTATLTISRVEAGDEADYYCQVWDSSSDHPVFGGGTKLTVL

Output:
1: 1.75; 2: -0.11

Input: I'd like to know its normalized analyte binding to RBD2 held by the immobilized ligand. The binder in question is F07 IgG1 (antibody, V domains shown) VH: QVQLVQSGAEVKKPGSSVRVSCKVSGYTFTGYYMHWVRQAPGQGLEWMGIINPSGGSTSYAQKFQGRVTMTRDTSTSTVYMELSSLRSEDTAVYYCARVRVGASDAFDIWGQGTMVTVSS VL: SYVLTQPPSVSVAPGQTARITCGGNNIGSKSVHWYQQKPGQAPVLVVYDDSDRPSGIPERFSGSNSGNTATLIISRVEAGDEADYYCQVWDSSSVHYVFGTGTKLTVL
Output: -0.05
